# Post-emergence effect against TRZAS per entry
- System: TRZAS
- assay method text: Post-emergence herbicidal effect and crop plant compatibility, greenhouse pot test
- Type: in vivo, Triticum aestivum
- cond: 320 g/ha, visual rating about 3 weeks after treatment, crop plant
The answer consists of two parts: a number and, after it, its unit.

CCOC(=O)C(OCC)Oc1nn(-c2ccc(Cl)cc2F)c(-c2ccc(F)cc2F)c1Br (stereo not drawn) [Example I-09] | 0%
COC(=O)C(OC)Oc1nn(-c2cccc(C)c2F)c(-c2ccnc(F)c2)c1Br (stereo not drawn) [Example I-115] | 20%

Proceed to the following item.
[ask] Can you look up the measured Post-emergence effect against TRZAS of COC(=O)C(OC)Oc1nn(-c2cccc(C)c2F)c(-c2ccc(F)nc2)c1C1CC1 (stereo not drawn) [Example I-93] for me?
[reply] 20%

* * *

- Test system: MATIN
- assay method text: Post-emergence herbicidal effect, greenhouse pot test
- Assay type: in vivo, Tripleurospermum inodorum
- cond: 320 g/ha
value type: Post-emergence effect against MATIN in % (%)
Hi! Could you send only the number? It should be in %, unit omitted.

Consider the worked cases shown below.
COC(=O)CCOC(=O)C(OC)Oc1nn(-c2ccccc2F)c(-c2ccc(F)nc2)c1C1CC1 (single isomer, unassigned) [Example I-74] | 80
COC(=O)CCOC(=O)C(OC)Oc1nn(-c2cc(F)ccc2F)c(-c2cncc(F)c2)c1C1CC1 (single isomer, unassigned) [Example I-79] | 80

Proceed to the following item.
[ask] Can you look up the measured Post-emergence effect against MATIN in % of COC(=O)CCOC(=O)C(OC)Oc1nn(-c2cc(F)ccc2F)c(-c2cncc(F)c2)c1C1CC1 (single isomer, unassigned) [Example I-78] for me?
[reply] 90

* * *

# Pre-emergence effect at 320 g/ha against DIGSA in % per entry
- Test system: DIGSA
- assay method text: Pre-emergence herbicidal effect, greenhouse pot test
- Format: in vivo, Digitaria sanguinalis
- cond: 320 g/ha, scored visually after about 3 weeks vs untreated controls
Hi! Could you send only the number? It should be in %, unit omitted.

Consider the worked cases shown below.
COC(=O)C(OC)Oc1nn(-c2ccccc2F)c(-c2ccc(F)nc2)c1I (stereo not drawn) | 100
COC(=O)C(OC)Oc1nn(-c2ncccc2F)c(-c2ccc(F)cc2F)c1Br (stereo not drawn) | 90
COC(Oc1nn(-c2cc(F)ccc2F)c(-c2cncc(F)c2)c1C1CC1)C(=O)O (stereo not drawn) | 80
COC(=O)C(OC)Oc1nn(-c2cc(F)ccc2F)c(-c2cncc(F)c2)c1C1CC1 (stereo not drawn) | 90
COC(=O)C(OC)Oc1nn(-c2ncccc2F)c(-c2ccc(F)nc2)c1Br (stereo not drawn) | 90

Proceed to the following item.
[ask] Can you look up the measured Pre-emergence effect at 320 g/ha against DIGSA in % of COC(=O)CCOC(=O)C(OC)Oc1nn(-c2ncccc2F)c(-c2cncc(F)c2)c1C1CC1 (single isomer, unassigned) for me?
[reply] 90

* * *

# Pre-emergence effect at 320 g/ha against ABUTH in % per entry
- Test system: ABUTH
- assay method text: Pre-emergence herbicidal effect, greenhouse pot test
- Type: in vivo, Abutilon theophrasti
- cond: 320 g/ha, scored visually after about 3 weeks vs untreated controls
Hi! Could you send only the number? It should be in %, unit omitted.

COC(=O)C(OC)Oc1nn(-c2cc(F)ccc2F)c(-c2cncc(F)c2)c1C1CC1 (stereo not shown) | 80

[ask] Requested read-out Pre-emergence effect at 320 g/ha against ABUTH in %, target or system ABUTH, entry COC(=O)C(OC)Oc1nn(-c2ccccc2F)c(-c2ccc(F)nc2)c1Br (racemic)
[reply] 80

[ask] Requested read-out Pre-emergence effect at 320 g/ha against ABUTH in %, target or system ABUTH, entry COC(=O)CCOC(=O)C(OC)Oc1nn(-c2ncccc2F)c(-c2cncc(F)c2)c1C1CC1 (single isomer, unassigned)
[reply] 90

[ask] Requested read-out Pre-emergence effect at 320 g/ha against ABUTH in %, target or system ABUTH, entry COC(Oc1nn(-c2cc(F)ccc2F)c(-c2cncc(F)c2)c1C1CC1)C(=O)O (stereo not shown)
[reply] 90
